- Tested on: MS2 coat protein
- method.notes: apparent KD of MS2 coat protein; designed switch direction (-1 OFF switch, 1 ON switch): 1; higher = weaker reporter binding
- test.settings: input ligand: none
parameter.measured: apparent KD of MS2 coat protein (nM)
# number only, unit nM dropped from output

Query block: Need apparent KD of MS2 coat protein of GUAGCAUACCGAGGAUAUUCAUAUUAUACAUGAGGAUCACCCAUGUAAGGUCGAUUACGACCUUGGGAGAAGGCGGAAUGCUAC [Xeonanis - 20 Mod34] (Eterna round: R96, puzzle: Same State NG 2) , thanks.
Result block: 108

Query block: Fill blank: measured apparent KD of MS2 coat protein of the sequence CGAUGUGAGUCAGGAUAUGGGUUAUCACUCCACAUGAGGAUCACCCAUGUAAAGAGGCCAAGGAGCCAGAAGGGACAUACAUCU [Zaorso] (Eterna round: R96, puzzle: Same State NG 2) is ____.
Result block: 50.8

Query block: Query (sequence): GGAAACAGAGGAGGAUAUGCAGAGGAUCACCCUGUAGAAGGCCUCGAAAGGAGGAUAUGCAGAGGAUCACCCUGUAGAAGGCCU [pwkr ssNG DX.26] (Eterna round: R96, puzzle: Same State NG 1) ; field requested: apparent KD of MS2 coat protein
Result block: 208

---

- Tested on: MS2 coat protein
- method.notes: apparent KD of MS2 coat protein; higher = weaker reporter binding
- test.settings: Eterna round: R107; input ligand: theophylline 20 uM
parameter.measured: apparent KD of MS2 coat protein (nM)
Please respond with the number in nM and leave the unit unwritten.

Worked cases, apparent KD of MS2 coat protein given:
ACACAUGAGGAUCACCCAUGUUGCAUAGAUACCAGAUAACGUGAGAUCCCUUGGCAGCUAACUGCAUGAACUUGACAUGCAUCAU [Same State Theophylline A 2] :: 88.7
AGUAAUAAUAUAAAUAAUAUUAGGUCAUGGCGAGGACCGGUACGGCCGCCACUCGGUUACAUGAGGAUCACCCAUGUCCCGCUUA [Exclusion - Tryptophan A] :: 35

Okay, next one:
Query block: Item under review: ACACAUGAGGAUCACCCAUGUGCGCUGGAAGGAGCGCAGAAUCAUGCAGGUAGGUCGCCAGUGCCCUCUACUAAAGGGAAAAGAG [Diatsoceri] . Reported apparent KD of MS2 coat protein?
Result block: 120

---

- Tested on: K4 kissing-loop RNA reporter;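 note: bound reporter read as fluorescence of individual clusters on recovered sequencing chips by microscopy, with normalized cluster intensities fitted with a binding model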
- method.notes: apparent KD of K4 kissing-loop reporter; higher = weaker reporter binding
- test.settings: Eterna round: R107; input ligand: theophylline 20 uM
parameter.measured: apparent KD of K4 kissing-loop reporter (nM)
Give a bare numeral; the unit nM is implied.

Some entries whose results are on file:
UGUACCGAGACAGGAUAUGUCGUCGAAAGACGAAAUGGAGUGAUGUUCCUUAAACUGCGAAAGCAGACAGAAGGGUCUUGGUACU [FmnBS 29 A10+U76] :: 165
UAACGACUCGGAAGGAGCGCGGUUUUAAAAGACUAAGGCCGAGUGAUGUUCGGAGAAGUCCCGCAGGUAGGUCGCCGGGUUGUGG [Ceororedar] :: 199

Query block: Fill blank: measured apparent KD of K4 kissing-loop reporter of the sequence GUCUAGCUAGCAGGAUAUAGCUGGUAGUGAUGUUACCACUAGAACUCUGCGGAAACGCAGAGUAUCCUAGAAGGGCUAGCUAGAC is ____.
Result block: 63.9

---

- Tested on: MS2 coat protein
- method.notes: apparent KD of MS2 coat protein, switch OFF state (with FMN for OFF switches, without FMN for ON switches); designed switch direction (-1 OFF switch, 1 ON switch): -1; higher = weaker reporter binding
- test.settings: FMN input: 0 or 200 uM; Eterna round: R93 (includes R88 designs)
Catalogue of sequences with associated apparent KD of MS2 coat protein

Solved cases (2 shown):
AAGGGACAUGAGGAUCACCCAUGUUAGGAUAUCGGAAAAGGAAAAAAAAAAAAGAAGACGAGAAGGGACACCAA :: 48.8 nM
AGGAAACAUGAGGAUCACCCAUGUUAGGAUAUGAACGAAAUAAAAUAAAAAUAAAAGUUCAGAAGGGACAAAAA [Mat - Exclusion 1 - Eli mod - D20] :: 49.6 nM

Turning to the following sequence.
Query block: Would you kindly share the measured apparent KD of MS2 coat protein for CGAAUACAUGAGGAUCACCCAUGUUAGGAUAUGCGAAAACAAAACAAAACAAACAAAAGUAGAAGGAGCAACAA [EXC - 1] ?
Result block: 20 nM

---

- System: MS2 coat protein
- method.notes: apparent KD of MS2 coat protein; higher = weaker reporter binding
- test.settings: Eterna round: R107; input ligand: arginine 13.2 mM
parameter.measured: apparent KD of MS2 coat protein (nM)
Provide the reading as a plain figure in nM.

UCGCUCUGGGUGAAUUCCGGAGAUGUGGAAGGAGCGGACGAAAGUCCAGGUAGGUCGCCAUCGGACAUGAGGAUCACCCAUGUAC [Same State - Arginine A (Freestyle 22)] :: 55.6
UCGGGCAGAGCGGCCGCCACUGUUUGGCAUGCGGAUGAAGGAACAUGAGGAUCACCCAUGUAGAUUAGGACCGGGCUGGCGGAGA [jjhemullin] :: 17.3
UCAUUUGAGUGAGAUGUAAGGUAUCAUGAUACCAGUAGAUAAUUAUACCCUUGGCAGCAUAACAUGAGGAUCACCCAUGUACAUG [Ac] :: 20.1

Continue with the sequence presented below.
Query block: May I ask what apparent KD of MS2 coat protein has been recorded for AUACAUGAGGAUCACCCAUGUAUAGAUGAAGGAGCGACCAGAGGGUCAGGUAGGUCGCAUCACAUGAGGAUCACCCAUGUAUUUU [DOUBLE!!! :-D #10] ?
Result block: 41.9

---

- Tested on: MS2 coat protein
- method.notes: apparent KD of MS2 coat protein; higher = weaker reporter binding
- test.settings: Eterna round: R107; input ligand: tryptophan 2.4 mM
parameter.measured: apparent KD of MS2 coat protein (nM)
A number alone suffices; assume nM.

ACAUUUAACUGAAGGAGCGUGAUUAACAUGAGGAUCACCCAUGUAACUUAGAUGCUUAUAUCACAGGUAGGUCGCAGACUAAUGA [JR_ExcArginiB_Sub011] :: 15.5
UCAUUUGAGUGAGAUGUAAGGUAUCAUGAUACCAGUAGAUAAUUAUACCCUUGGCAGCAUAACAUGAGGAUCACCCAUGUACAUG [Ac] :: 19.6
CUCCCGUGGUCGGCCGCCACUGGAGGCCUUGCGCGACAUGAGGAUCACCCAUGUGGGCCCGGCGUCAGGACCGGGAUCGCGUGAG [#1 Same State - Tryptophan B Attempt #11 (HarryS)] :: 15.6
ACGUCUCGUUUACUCGUGGGUUAGCUCGAUACCAGUAUUCAAACUUACCCUUGGCAGCGACAUGAGGAUCACCCAUGUGCGAAGA [XTheo A #23] :: 17.5

Query block: # lookup: apparent KD of MS2 coat protein of GCCGGGCCUUCGGCCGCCACUGAGAGAGUCGUGUGAACAUGAGGAUCACCCAUGUAAUAUAUAUACAGGACCGGGAGGGCCCGGC [4.V]
Result block: 10.4

Reference source for all entries: the supplement of paper PMC9170038
